Target: GDAP1ΔTM (Mus musculus, UniProt O88741, T157P)
Sequence (O88741 1-322 T157P): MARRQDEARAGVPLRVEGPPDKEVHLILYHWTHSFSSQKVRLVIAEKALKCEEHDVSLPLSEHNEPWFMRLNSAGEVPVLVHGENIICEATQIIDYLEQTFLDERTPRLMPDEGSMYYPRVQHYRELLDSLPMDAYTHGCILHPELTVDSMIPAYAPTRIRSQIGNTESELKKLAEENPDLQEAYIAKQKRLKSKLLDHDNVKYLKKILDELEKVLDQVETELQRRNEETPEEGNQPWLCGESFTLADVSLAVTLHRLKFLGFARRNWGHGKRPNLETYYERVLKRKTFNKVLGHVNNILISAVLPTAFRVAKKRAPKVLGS
Test: native PAGE titration, band quantification, Hill fit
Reported Endpoint: pKd
Note: pKd values are expressed as the negative base-10 logarithm of concentration in M.

Entry under review: CCCCCC(O)/C=C/C=O (stereo not shown) [4-hydroxynonenal] . Reported pKd?
2.88
